Here, each record is paired with measured minimal effective concentration data.
Test system: intracellular APEC O2 in HD11 cells
TEST DESCRIPTION: Intracellular survival assay
Type: cell-based, Escherichia coli
MEASUREMENT SETUP: Escherichia coli; O2, HD11, 6 h treatment; read-out: SMs intracellular APEC clearance concentration
MEASUREMENT TYPE: minimal effective concentration (µM)

[[record]]
compound = "CC(=O)OC(C(Br)C(=O)c1ccc([N+](=O)[O-])cc1)C(Cl)(Cl)Cl (stereo not shown) [SM10]"
measurement_type = "minimal effective concentration"
u = "µM"
assay_result = 100

[[record]]
compound = "CCN1/C(=C/c2ccc3ccccc3[n+]2CC)C=Cc2ccccc21 [SM9]"
measurement_type = "minimal effective concentration"
u = "µM"
assay_result = 100

[[record]]
compound = "CC1CCCN(CCC(=O)c2ccc(Br)cc2)C1 (stereo not shown) [SM1]"
measurement_type = "minimal effective concentration"
u = "µM"
assay_result = 200

[[record]]
compound = "COc1cc(CNCCc2ccc(C)cc2)ccc1OCC(O)CN1CCCC1 (stereo not shown) [SM3]"
measurement_type = "minimal effective concentration"
u = "µM"
assay_result = 200

[[record]]
compound = "COc1cc(CNCCc2ccc3ccccc3c2)ccc1OCC(O)CN1CCCC1 (stereo not shown) [SM2]"
measurement_type = "minimal effective concentration"
u = "µM"
assay_result = 200

[[record]]
compound = "CC1CCC(C(C)C)C(OC(=O)Cn2c[n+](CC(=O)OC3CC(C)CCC3C(C)C)c3ccccc32)C1 (stereo not shown) [SM4]"
measurement_type = "minimal effective concentration"
u = "µM"
assay_result = 50

[[record]]
compound = "COc1ccc(CCN(Cc2cc3c(cc2Cl)OCO3)CC2CCN(C)CC2)cc1 [SM11]"
measurement_type = "minimal effective concentration"
u = "µM"
assay_result = 200


###

Tested on: APEC O78
TEST DESCRIPTION: MIC and MBC determination in M63 media
Format: cell-based, Escherichia coli
MEASUREMENT SETUP: Escherichia coli, subculture on LB agar
MEASUREMENT TYPE: MBC (µM)

[[record]]
molecule = "CC(=O)OC(C(Br)C(=O)c1ccc([N+](=O)[O-])cc1)C(Cl)(Cl)Cl (stereo not shown) [SM10]"
measurement_type = "MBC"
assay_result = 50

[[record]]
molecule = "COc1cc(CNCCc2ccc3ccccc3c2)ccc1OCC(O)CN1CCCC1 (stereo not shown) [SM2]"
measurement_type = "MBC"
assay_result = 100

[[record]]
molecule = "CC1CCC(C(C)C)C(OC(=O)Cn2c[n+](CC(=O)OC3CC(C)CCC3C(C)C)c3ccccc32)C1 (stereo not shown) [SM4]"
measurement_type = "MBC"
assay_result = 50

[[record]]
molecule = "CC1CCCN(CCC(=O)c2ccc(Br)cc2)C1 (stereo not shown) [SM1]"
measurement_type = "MBC"
assay_result = 200

[[record]]
molecule = "CCN1/C(=C/c2ccc3ccccc3[n+]2CC)C=Cc2ccccc21 [SM9]"
measurement_type = "MBC"
assay_result = 50

[[record]]
molecule = "COc1cc(CNCCc2ccc(C)cc2)ccc1OCC(O)CN1CCCC1 (stereo not shown) [SM3]"
measurement_type = "MBC"
assay_result = 100

[[record]]
molecule = "COc1ccc(CCN(Cc2cc3c(cc2Cl)OCO3)CC2CCN(C)CC2)cc1 [SM11]"
measurement_type = "MBC"
assay_result = 100

